Test System: Aldehyde dehydrogenase 1A1 (Homo sapiens) (UniProt P00352)
Sequence (P00352 whole entry, looked up): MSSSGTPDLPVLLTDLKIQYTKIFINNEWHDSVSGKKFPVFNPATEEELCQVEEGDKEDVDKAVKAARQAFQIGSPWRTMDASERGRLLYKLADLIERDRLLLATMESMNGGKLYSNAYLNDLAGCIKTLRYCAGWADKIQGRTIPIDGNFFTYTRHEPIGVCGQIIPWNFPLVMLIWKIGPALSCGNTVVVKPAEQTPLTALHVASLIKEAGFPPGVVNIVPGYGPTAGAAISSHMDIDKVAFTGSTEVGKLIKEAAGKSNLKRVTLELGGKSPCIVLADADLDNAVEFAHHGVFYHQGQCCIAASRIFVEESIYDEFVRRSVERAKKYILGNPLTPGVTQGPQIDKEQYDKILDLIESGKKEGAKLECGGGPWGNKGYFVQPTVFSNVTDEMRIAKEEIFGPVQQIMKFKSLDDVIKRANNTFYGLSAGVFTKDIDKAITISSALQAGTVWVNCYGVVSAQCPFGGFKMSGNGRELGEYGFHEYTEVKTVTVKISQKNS
Test Details: qHTS Assay for Inhibitors of Aldehyde Dehydrogenase 1 (ALDH1A1)
Condition Set: Purified ALDH1A1, NADH fluorescence, propionaldehyde substrate; series mostly up to 75.3 µM
The whole screen tested about 220,000 compounds, of which about 16,000 (7.3%) were called active. Inconclusive results (about 25%) are left out. Calls follow the shape of the dose curve; as a rule, active = well fitted inhibition curve with a large enough effect (not every such curve was filed as active); inconclusive = small, poorly fitted or top-dose-only effect, or another doubt; inactive = no such curve, though single readings can be large or run the other way. The sample holds actives, similar compounds and a random draw of the others, so the mix is not that of the screen.
Returns: one label drawn from yes = active, no = inactive

# example entries with known answers
Problem: How was CC1COc2ccccc2N1C(=O)c1cccnc1Cl (stereo not given) classified in this test?
Solution: no

Problem: How was COc1cccc(C(O)Cc2nc3ccccc3n2C)c1OC (stereo not given) classified in this test?
Solution: no

Problem: How was CCOC(=O)CCC(=O)OCC(=O)NC(C)C1CC2CCC1C2 (stereo not given) classified in this test?
Solution: yes

Problem: How was CC(C)(C)OC(=O)NCCCC1=CC2=CC(=O)C(C)(OC(=O)c3ccco3)C(=O)C2=CO1 (stereo not given) classified in this test?
Solution: no

---
Problem: How was COc1cccc(Oc2ccc(N)cc2)c1 classified in this test?
Solution: no

* * *

Test System: Aldehyde dehydrogenase 1A1 (Homo sapiens)
Test Details: qHTS Assay for Inhibitors of Aldehyde Dehydrogenase 1 (ALDH1A1)
Condition Set: Purified ALDH1A1, NADH fluorescence, propionaldehyde substrate; series mostly up to 75.3 µM
The whole screen tested about 220,000 compounds, of which about 16,000 (7.3%) were called active. Roughly 25% stayed inconclusive and do not appear here. The call rests on the fitted dose curve; in most records, active means well fitted inhibition curve with a large enough effect (not every such curve was filed as active); inconclusive means small, poorly fitted or top-dose-only effect, or another doubt; inactive means no such curve, though single readings can be large or run the other way. This excerpt belongs to a sample that is enriched for actives.
Returns: one label drawn from active, inactive

# example entries with known answers
Problem: How was Cc1ccccc1NC(=O)Cc1nnc(SCC(=O)N2CCN(c3ccccc3)CC2)n1C classified in this test?
Solution: inactive

Problem: How was COc1ccc(OCC(=O)N2CCOCC2)cc1 classified in this test?
Solution: inactive

Problem: How was Cn1c(CNc2nc(-c3ccccc3)cs2)nnc1SCC(=O)c1ccccc1 classified in this test?
Solution: inactive

Problem: How was Cc1nc2cnc(Nc3ccccc3)nc2n(C[C@H]2CCCO2)c1=O classified in this test?
Solution: inactive

---
Problem: How was Cc1cc(C)cc(C(=O)N(CCc2ccccc2)C2=CC3CCC(C2)N3C)c1 (stereo unspecified) classified in this test?
Solution: inactive

Problem: How was CC(C)NC(=O)CSc1nnc(COc2ccccc2Cl)o1 classified in this test?
Solution: inactive

Problem: How was N#CC1=C(N)N(c2ccc(F)cc2)C(=O)C1 classified in this test?
Solution: active

Problem: How was CCCn1c(SCC(=O)c2ccc3c(c2)OCCO3)nnc1C(C)C classified in this test?
Solution: active

Problem: How was C=CCn1c(=O)c2ccccc2n2c(SCC(=O)N3CCCc4ccccc43)nnc12 classified in this test?
Solution: active

Problem: How was CN1CCN(C(=O)C2C3C=CC(C3)C2C(=O)O)CC1 (stereo unspecified) classified in this test?
Solution: inactive

Problem: How was CCCC(C)C(=O)NCc1ccncc1 (stereo unspecified) classified in this test?
Solution: inactive

Problem: How was N/C(=N\OC(=O)CCc1ccccc1)c1cccnc1 classified in this test?
Solution: inactive

Problem: How was O=c1c2ccccc2oc2nc(C3CCCCC3)n(Cc3ccco3)c(=O)c12 classified in this test?
Solution: inactive

Problem: How was CCCn1c(SCC(N)=O)nnc1C(C)C classified in this test?
Solution: inactive

Problem: How was CCNC(=O)COc1cc(C)c(Br)c(C)c1 classified in this test?
Solution: inactive

Problem: How was Cn1c(N)cc(-c2ccc(F)cc2)c(C#N)c1=O classified in this test?
Solution: inactive

Problem: How was Cc1ccc(NC(=O)CSc2nnc(COc3ccccc3C)o2)cc1 classified in this test?
Solution: inactive

Problem: How was COc1ccccc1C(=O)CSc1cccc[n+]1[O-] classified in this test?
Solution: active

Problem: How was CCc1ccc(N2CC(O)=C(c3nc4ccccc4c(=O)[nH]3)C2=N)cc1 classified in this test?
Solution: inactive

Problem: How was CCC1CCCCN1S(=O)(=O)Cc1ccccc1Cl (stereo unspecified) classified in this test?
Solution: inactive

Problem: How was CC(=O)c1ccc(OCCN2CCOCC2)cc1 classified in this test?
Solution: active

Problem: How was O=C1CCCC2=C1C(c1cccs1)CC(=O)N2c1ccc(F)cc1 (stereo unspecified) classified in this test?
Solution: inactive

Problem: How was CC(O)C(NS(=O)(=O)c1ccc(Cl)cc1)C(=O)OCc1cc([N+](=O)[O-])cc2c1OCOC2 (stereo unspecified) classified in this test?
Solution: inactive

Problem: How was CC(C)=CCC[C@]1(C)[C@@H](CC=C(C)C)C[C@@]2(CC=C(C)C)C(=O)[C@]1(C(=O)C(C)C)C(=O)C(CC=C(C)C)=C2O classified in this test?
Solution: inactive

Problem: How was N#Cc1ccc(CSc2nnc3ccccn23)cc1 classified in this test?
Solution: inactive

Problem: How was Cc1ccccc1NC(=O)Nc1ccccc1N1CCCCC1 classified in this test?
Solution: inactive

* * *

Test System: Aldehyde dehydrogenase 1A1 (Homo sapiens) (UniProt P00352)
Test Details: qHTS Assay for Inhibitors of Aldehyde Dehydrogenase 1 (ALDH1A1)
Condition Set: Purified ALDH1A1, NADH fluorescence, propionaldehyde substrate; series mostly up to 75.3 µM
In all, about 220,000 compounds went through this assay and about 16,000 (7.3%) were called active. Inconclusive results (about 25%) are left out. Calls come from the whole dose curve; as a rule, active = well fitted inhibition curve with a large enough effect (not every such curve was filed as active); inconclusive = small, poorly fitted or top-dose-only effect, or another doubt; inactive = no such curve, though single readings can be large or run the other way. The full list was thinned out, with actives kept by preference.
Returns: one label drawn from active, inactive

Problem: How was Cc1ccc(S(=O)(=O)N(C)CC(=O)OCC(=O)N2CC(=O)Nc3ccccc32)cc1 classified in this test?
Solution: inactive

Problem: How was Cc1ccc(NC(=S)N(CCCN2CCC(C)CC2)Cc2ccco2)cc1 classified in this test?
Solution: inactive

Problem: How was COc1ccc(-c2ccc(OC(=O)NC3CCS(=O)(=O)C3)cc2)cc1 (stereo not drawn) classified in this test?
Solution: inactive

---
Problem: How was CC(=O)c1ccc(-c2nnc(CCC(=O)N(C)Cc3cnc4ccccn34)o2)s1 classified in this test?
Solution: inactive

Problem: How was OCCC1CN(Cc2cccn2-c2nccs2)CCN1CCc1ccccc1 (stereo not drawn) classified in this test?
Solution: inactive

Problem: How was COc1ccc(C(=O)NNS(=O)(=O)c2ccc(C)cc2)cc1 classified in this test?
Solution: inactive

Problem: How was COCCCNC(=O)c1ccc(CNS(=O)(=O)c2ccc(NC(C)=O)cc2)cc1 classified in this test?
Solution: active

Problem: How was CN1C(=O)CC(N2CCN(c3ccccn3)CC2)C1=O (stereo not drawn) classified in this test?
Solution: inactive

Problem: How was COC(=O)c1cc(C(=O)OC)cc(N2C(=O)CC(N3CCN(c4ccccc4)CC3)C2=O)c1 (stereo not drawn) classified in this test?
Solution: active

Problem: How was CCn1c(CSc2nc(C)cc(C)n2)nnc1SCC(N)=O classified in this test?
Solution: inactive

Problem: How was CCOC(=O)C1CCN(c2ccc(C(=O)O)cc2[N+](=O)[O-])CC1 classified in this test?
Solution: inactive

Problem: How was Cc1ccccc1-c1nnc(SCC(=O)NCc2ccc3c(c2)OCO3)n1C classified in this test?
Solution: inactive

Problem: How was COc1cccc(CN(C)CC(=O)NCc2ccccc2Cl)c1OC classified in this test?
Solution: inactive

Problem: How was CCOC(=O)N1CCN(C(=O)CSc2nc(C)nc3c2c(=O)n(C)c(=O)n3C)CC1 classified in this test?
Solution: inactive

Problem: How was CCOC(=O)CSC1=C(C#N)C(c2sccc2C)CC(=O)N1 (stereo not drawn) classified in this test?
Solution: inactive

Problem: How was Cc1ccc(S(=O)(=O)N2CCC(C(=O)OCC(=O)N3CC(=O)Nc4ccccc43)CC2)cc1 classified in this test?
Solution: active

Problem: How was COC(=O)c1sc(=S)n(-c2ccc(Cl)cc2)c1C classified in this test?
Solution: inactive

Problem: How was O=C(CSc1ncn[nH]1)NCc1ccc2c(c1)OCO2 classified in this test?
Solution: inactive

Problem: How was CCOC(=O)c1ccc(N2C(=O)CC(N3CCC(C(=O)OCC)CC3)C2=O)cc1 (stereo not drawn) classified in this test?
Solution: active

Problem: How was CCOC(=O)c1ccc(NC(=O)C2CC(=O)Nc3nc4ccccc4n32)cc1 (stereo not drawn) classified in this test?
Solution: inactive

Problem: How was CCOC(=O)c1sc(=S)n(-c2cccc(OC)c2)c1N classified in this test?
Solution: active

Problem: How was C/C(=N\NC(=O)c1nc(C)cc(C)n1)c1ccccc1 classified in this test?
Solution: inactive

Problem: How was CCCOc1ccc(N2C(=O)CC(N(CCc3ccc(S(N)(=O)=O)cc3)C(C)=O)C2=O)cc1 (stereo not drawn) classified in this test?
Solution: inactive

Problem: How was COc1ccc(CCN(C(=O)COc2ccccc2)c2nc(-c3ccccc3)cs2)cc1OC classified in this test?
Solution: inactive
